Each recorded value in this set is attributed to BindingDB's records for doi:10.1111/j.1747-0285.2007.00594.x.

Reported IC50 for target or system Serine/threonine-protein kinase PLK1 (Homo sapiens), by entry.
Express the result in nM but write the number alone.

[[record]]
compound_structure_string = "CC[C@@H]1C(=O)N(C)c2cnc(Nc3ccc(C(=O)NC4CCN(C)CC4)cc3)nc2N1C1CCCC1"
target_or_system = "Serine/threonine-protein kinase PLK1 (Homo sapiens)"
measured_property = "IC50"
value_units = "nM"
result = 5


Value sought: IC50, system Serine/threonine-protein kinase PLK1 (Homo sapiens), item COc1cc(N2CCN(C)CC2)ccc1Nc1ncc(C(C)=O)c(NC2CCCC2)n1 . Result: 145

----------
- Target or system: Serine/threonine-protein kinase PLK2 (Homo sapiens, UniProt Q9NYY3)
- Sequence (Q9NYY3 whole entry): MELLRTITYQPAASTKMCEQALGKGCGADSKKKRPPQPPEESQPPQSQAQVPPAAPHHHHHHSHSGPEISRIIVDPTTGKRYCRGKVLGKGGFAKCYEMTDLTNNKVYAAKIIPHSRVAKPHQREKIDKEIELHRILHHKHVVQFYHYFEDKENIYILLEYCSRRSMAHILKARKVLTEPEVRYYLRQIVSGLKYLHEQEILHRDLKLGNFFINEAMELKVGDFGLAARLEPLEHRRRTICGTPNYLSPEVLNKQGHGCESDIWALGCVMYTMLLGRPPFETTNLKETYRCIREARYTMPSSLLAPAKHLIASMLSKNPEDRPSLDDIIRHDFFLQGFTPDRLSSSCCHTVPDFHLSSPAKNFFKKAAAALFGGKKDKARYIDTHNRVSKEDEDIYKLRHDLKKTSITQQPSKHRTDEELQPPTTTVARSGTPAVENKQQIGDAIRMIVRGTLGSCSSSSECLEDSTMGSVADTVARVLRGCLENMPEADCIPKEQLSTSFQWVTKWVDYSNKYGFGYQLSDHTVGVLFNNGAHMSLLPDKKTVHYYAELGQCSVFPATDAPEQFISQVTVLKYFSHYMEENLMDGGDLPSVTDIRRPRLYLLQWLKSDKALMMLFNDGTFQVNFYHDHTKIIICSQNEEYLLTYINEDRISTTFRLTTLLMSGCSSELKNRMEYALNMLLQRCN
Measured property: IC50 (nM)
Give a bare numeral; the unit nM is implied.

[[record]]
compound_structure_string = "CC(=O)c1cnc(Nc2ccc(N3CCN(C)CC3)cc2)nc1NC1CCCC1"
measured_property = "IC50"
result = 367


Let us move to another entry and its IC50.
Considering CC[C@@H]1C(=O)N(C)c2cnc(Nc3ccc(C(=O)NC4CCN(C)CC4)cc3)nc2N1C1CCCC1 , its IC50 with Serine/threonine-protein kinase PLK2 (Homo sapiens, UniProt Q9NYY3) was recorded as 11.5

----------
Measured IC50 accompanies every entry in the list below.
- Target or system: Serine/threonine-protein kinase PLK3 (Homo sapiens)
- Sequence (Q9H4B4 whole entry): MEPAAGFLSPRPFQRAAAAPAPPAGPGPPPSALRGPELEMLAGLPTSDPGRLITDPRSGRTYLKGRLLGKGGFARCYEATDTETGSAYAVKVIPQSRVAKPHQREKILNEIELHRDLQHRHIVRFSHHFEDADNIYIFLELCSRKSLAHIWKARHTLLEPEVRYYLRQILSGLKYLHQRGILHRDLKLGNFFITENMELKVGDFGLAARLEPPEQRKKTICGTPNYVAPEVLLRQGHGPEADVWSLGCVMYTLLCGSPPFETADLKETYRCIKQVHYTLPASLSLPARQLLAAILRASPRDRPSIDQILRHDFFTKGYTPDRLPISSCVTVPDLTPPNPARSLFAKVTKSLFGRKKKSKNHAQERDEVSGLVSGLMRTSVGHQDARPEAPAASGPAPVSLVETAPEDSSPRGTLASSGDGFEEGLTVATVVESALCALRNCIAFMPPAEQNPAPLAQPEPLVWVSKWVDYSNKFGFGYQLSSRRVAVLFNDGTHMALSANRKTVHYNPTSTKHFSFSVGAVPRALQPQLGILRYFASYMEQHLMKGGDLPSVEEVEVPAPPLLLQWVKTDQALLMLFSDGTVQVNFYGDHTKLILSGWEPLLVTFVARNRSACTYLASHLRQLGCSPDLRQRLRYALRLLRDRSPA
The answer is to be given in nM; state only the numeric part.

[[record]]
compound_structure_string = "CC(=O)c1cnc(Nc2ccc(N3CCN(C)CC3)cc2)nc1NC1CCCC1"
target_or_system = "Serine/threonine-protein kinase PLK3 (Homo sapiens)"
value_units = "nM"
result = 3490


// CC[C@@H]1C(=O)N(C)c2cnc(Nc3ccc(C(=O)NC4CCN(C)CC4)cc3)nc2N1C1CCCC1 : IC50 value = 6.7
